# system-name: PIP4K 2A (Homo sapiens)
# Sequence (P48426 whole entry, species assumed): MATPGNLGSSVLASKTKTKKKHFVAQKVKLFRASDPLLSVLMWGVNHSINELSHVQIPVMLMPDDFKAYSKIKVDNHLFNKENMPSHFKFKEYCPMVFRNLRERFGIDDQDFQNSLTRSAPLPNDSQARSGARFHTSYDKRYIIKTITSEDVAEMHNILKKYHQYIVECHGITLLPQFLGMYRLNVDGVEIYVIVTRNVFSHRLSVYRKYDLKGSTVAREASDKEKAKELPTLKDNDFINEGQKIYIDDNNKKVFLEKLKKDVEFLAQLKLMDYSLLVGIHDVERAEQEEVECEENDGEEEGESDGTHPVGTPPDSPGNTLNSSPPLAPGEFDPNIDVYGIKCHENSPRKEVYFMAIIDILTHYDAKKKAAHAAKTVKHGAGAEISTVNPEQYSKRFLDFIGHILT
# assay-info: Kinase Assay PIP4K2 A (PIP4KtypeIIA inhibition assay)
# Format: biochemical
# Parameters: made in house; host or cells: E. coli
# measurement-parameters: compounds listed under IC50 bin headings
property-name: IC50

stdin: // map CC1Oc2cc(N3CCCC3=O)ccc2-c2cnc(Nc3cnc4ccn(S(C)(=O)=O)c4c3)cc21 (stereo not shown) [Example 57] to recorded IC50 (system: PIP4K 2A (Homo sapiens))
stdout: ≤ 1 nM

stdin: // map CC1c2cc(Nc3cnc4c(c3)N3C(=O)CC[C@H]3CO4)ncc2-c2ccc(N3CCCC3=O)cc2N1C (stereo partly shown) [Example 44] to recorded IC50 (system: PIP4K 2A (Homo sapiens))
stdout: ≤ 1 nM

stdin: // map CC1Oc2cc(N3CCCC3=O)ccc2-c2cnc(Nc3cnc4c(c3)N3[C@H](CO4)CN(C)S3(=O)=O)cc21 (stereo partly shown) [Example 187] to recorded IC50 (system: PIP4K 2A (Homo sapiens))
stdout: 10 to 100 nM

stdin: // map CC1Oc2cc(N3CCCC3=O)ccc2-c2cnc(Nc3cnc4c(c3)N(C(=O)CO)CCO4)cc21 (stereo not shown) [Example 61] to recorded IC50 (system: PIP4K 2A (Homo sapiens))
stdout: ≤ 1 nM

stdin: // map CN(C)C(=O)c1ccc2c(c1)OC(C1CC1)c1cc(Nc3cncc(N4CCCC4=O)c3)ncc1-2 (stereo not shown) [Example 35] to recorded IC50 (system: PIP4K 2A (Homo sapiens))
stdout: ≤ 1 nM

New cases:
stdin: // map CC1Oc2cc(N3CCCC3=O)ccc2-c2cnc(Nc3cncc(NC(=O)NCc4ccccc4)c3)cc21 (stereo not shown) [Example 103] to recorded IC50 (system: PIP4K 2A (Homo sapiens))
stdout: ≤ 1 nM

stdin: // map CC1Oc2cc(N3CCCC3=O)ccc2-c2cnc(Nc3cncc(N4CCNC4=O)c3)cc21 (stereo not shown) [Example 55] to recorded IC50 (system: PIP4K 2A (Homo sapiens))
stdout: ≤ 1 nM
